Test system: M14 melanoma
assay protocol: NCI-60 one-dose screen, 48 h (100 = growth as untreated, 0 = no growth, -100 = all killed)
condition parameters: 10 µM unless noted
This is part of a sample that, as a whole, favours compounds with a hit. Of some 83,000 tested, about 20% had one in any assay. Activity calls are given as the source filed them. Rule for the calls: active = growth percent below 10; inactive = the rest.
test readout: growth

These recorded examples may help you get a feel for the data.
{"compound": "CN(C)c1ncnc2c1ncn2C1CCCCO1 (stereo not given)", "growth": "105% (inactive)"}
{"compound": "CC(=O)c1ccc(NS(=O)(=O)c2ccc([N+](=O)[O-])cc2)cc1", "growth": "107% (inactive)"}
{"compound": "CCOC(=O)C(C(=O)OCC)C1CCCCC1", "growth": "102% (inactive)"}
{"compound": "COc1cnc2c(c1)C(=O)c1c-2n(CCCNC2=NCCS2)c(=O)c2cc(F)ccc12", "growth": "5.96% (active)"}
{"compound": "NC(=O)NS(=O)(=O)c1ccc(N2N=C(C(F)(F)F)CC2c2cc(C(F)(F)F)cc(C(F)(F)F)c2)cc1 (stereo not given)", "growth": "79.7% (inactive)"}

input: GET /values?readout=growth&item= CC1CN(CC(O)c2ccc(Br)cc2)CCO1 (stereo not given)
output: 104% (inactive)

input: Moving on to COc1cccc2c1C(=O)c1c(O)c3c(c(O)c1C2=O)C[C@@](O)(C(C)=O)C[C@@H]3O[C@H]1C[C@H](N)[C@H](O)[C@H](C)O1
output: -86.5% (active)

input: Param item: O=C1Nc2ccc(C(=O)O)c(O)c2C1=O
output: 107% (inactive)

input: Item: O=C1C=CC(=O)N1c1ccccc1N1C(=O)C=CC1=O
output: 110% (inactive)

====

Test system: SR leukemia
assay protocol: NCI-60 one-dose screen, 48 h
condition parameters: 10 µM unless noted
The panel holds about 83,000 compounds, 20% with a hit somewhere; the sample as a whole holds those more often. Calls of active or inactive are those of the source. Rule for the calls: active = growth percent below 10; inactive = the rest.
Permitted responses: 1.0 = active, 0.0 = inactive

{"molecule": "CC(=O)c1ccc(NS(=O)(=O)c2ccc([N+](=O)[O-])cc2)cc1", "target desc": "SR leukemia", "group": 0.0}

Now consider a different molecule.
input: // outcome(item) with item = NS(=O)(=O)c1ccc(-n2nc(-c3ccc(Br)cc3)ccc2=O)cc1
output: 0.0

====

Tested on: SK-MEL-2 melanoma
assay protocol: NCI-60 one-dose screen, 48 h (100 = growth as untreated, 0 = no growth, -100 = all killed)
condition parameters: 10 µM unless noted
Compounds without any hit were thinned out: in the full panel of roughly 83,000, 20% have a hit.
Reported growth maps to class as: LOW = under 30%, MID = from 30% up to 80%, HIGH = 80% and over

{"compound": "COc1cc(OC)c2c(c1Cl)O[C@]1(C2=O)C(OCc2ccccc2)=CC(=O)C[C@H]1C", "target desc": "SK-MEL-2 melanoma", "group": "LOW"}
{"compound": "O=C(COc1cccc(/C=C2\\Cc3ccccc3C2=O)c1)c1ccc(Cl)cc1", "target desc": "SK-MEL-2 melanoma", "group": "MID"}
{"compound": "Nc1ccccc1-c1ccn[nH]1", "target desc": "SK-MEL-2 melanoma", "group": "HIGH"}
{"compound": "COc1cc(/C(Cl)=C/C=C/C(=O)c2c(C)[n+]([O-])c3ccc(Cl)cc3[n+]2[O-])cc(OC)c1OC", "target desc": "SK-MEL-2 melanoma", "group": "LOW"}
{"compound": "Clc1ccc2[nH]cc(-c3cncn3CCc3ccccc3)c2c1", "target desc": "SK-MEL-2 melanoma", "group": "MID"}
{"compound": "CC1Cc2ccccc2N1C(=O)c1ccc(C(=O)c2ccccc2)cc1 (configuration not stated)", "target desc": "SK-MEL-2 melanoma", "group": "LOW"}
{"compound": "COc1ccc(NC(=O)c2ccccc2-c2ccccc2)c(C(N)=O)c1", "target desc": "SK-MEL-2 melanoma", "group": "LOW"}
{"compound": "COc1cc(/C=C2\\CN(C)CC3=C2Nc2nc(SC)[nH]c(=O)c2C3c2cc(OC)c(OC)c(OC)c2)cc(OC)c1OC (configuration not stated)", "target desc": "SK-MEL-2 melanoma", "group": "MID"}

Now, please, on to the next compound.
input: Determine which band this compound sits in: O=C1C2C(C(=O)N1CC[Se][Se]CCN1C(=O)C3C(C1=O)[C@H]1C=C[C@@H]3C1)[C@H]1C=C[C@@H]2C1 (some centres not stated)
output: LOW
